# MEASURED_ON: NK-1 (Homo sapiens, UniProt P25103)
# Sequence (P25103 whole entry): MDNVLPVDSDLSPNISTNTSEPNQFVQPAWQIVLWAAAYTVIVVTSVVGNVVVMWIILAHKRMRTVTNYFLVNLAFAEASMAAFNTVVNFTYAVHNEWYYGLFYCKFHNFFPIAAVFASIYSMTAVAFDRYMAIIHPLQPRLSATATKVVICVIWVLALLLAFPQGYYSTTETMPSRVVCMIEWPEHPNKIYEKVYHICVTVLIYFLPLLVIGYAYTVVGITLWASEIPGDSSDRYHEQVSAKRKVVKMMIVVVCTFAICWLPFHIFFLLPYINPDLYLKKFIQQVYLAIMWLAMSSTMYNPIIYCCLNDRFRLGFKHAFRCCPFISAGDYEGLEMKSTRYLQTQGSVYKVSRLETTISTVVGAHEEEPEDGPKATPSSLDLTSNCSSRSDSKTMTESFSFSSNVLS
Structures can show the parent of a compound that is named as a salt.
Quick list: IC50 per entry.
MEASUREMENT_NAME: IC50

molecule=CN1CCC(COCc2cc(C(F)(F)F)cc3ccn(C)c23)(c2ccc(F)cc2)CC1 value_measured="0.01 to 100 nM"
molecule=CN1CCC(COCc2cc(C(F)(F)F)cc3c2nnn3C)(c2ccc(F)cc2)CC1 value_measured="100 to 300 nM"
molecule="CC(OCC1(c2ccc(F)cc2)CCNCC1)c1cc(C(F)(F)F)cc2c1CC(=O)N2 (racemic) [Example 129, TFA]" value_measured="100 to 300 nM"
molecule=CN1CCC(COCc2cc(C(F)(F)F)cc3cc[nH]c23)(c2ccccc2)CC1 value_measured="0.01 to 100 nM"

---

# MEASURED_ON: NK-1 (Homo sapiens)
Structures can show the parent of a compound that is named as a salt.
MEASUREMENT_NAME: IC50

molecule="CC(OCC1(c2ccc(F)cc2)CCN(C)CC1)c1cc(Cl)cc2c(C3CC3)n[nH]c12 (racemic)" value_measured="0.01 to 100 nM"
molecule="CN1CCC(COCc2cc(C(F)(F)F)cc3[nH]ccc23)(c2ccccc2)CC1 [Example 76, 2,2,2-trifluoroacetate]" value_measured="0.01 to 100 nM"
molecule="COCC(OCC1(c2ccc(F)cc2)CCN(C)CC1)c1cc(Cl)cc2cn[nH]c12 (stereo not shown) [Example 93, trifluoroacetic acid salt]" value_measured="0.01 to 100 nM"
molecule="CCn1cnc2c(C(C)OCC3(c4ccc(F)cc4)CCN(C)CC3)cc(C(F)(F)F)cc21 (single isomer, unassigned) [Example 135]" value_measured="> 300 nM"
molecule=FC(F)(F)c1cc(COCC2(c3ccccc3)CCNCC2)c2[nH]nc(Br)c2c1 value_measured="0.01 to 100 nM"
molecule="CC(OCC1(c2ccc(F)cc2)CCN(C)CC1)c1cc(C(F)(F)F)cc2cnn(C)c12 (single isomer, unassigned) [Example 27]" value_measured="100 to 300 nM"
molecule=Cc1n[nH]c2c([C@@H](C)OCC3(c4ccc(F)cc4)CCN(C)CC3)cc(Cl)cc12 value_measured="0.01 to 100 nM"

---

Some compounds, each annotated with its measured IC50.
# MEASURED_ON: NK-1 (Homo sapiens)
Structures can show the parent of a compound that is named as a salt.
MEASUREMENT_NAME: IC50

compound=C[C@@H](OCC1(c2ccc(F)cc2)CCN(C)CC1)c1cc(Cl)cc2cnn(CC3CC3)c12 value_measured="0.01 to 100 nM"
compound="CCn1cnc2c(C(C)OCC3(c4ccccc4)CCN(C)CC3)cc(C(F)(F)F)cc21 (single isomer, unassigned)" value_measured="100 to 300 nM"
compound="CC(OCC1(c2ccccc2)CCN(C)CC1)c1cc(C(F)(F)F)cc2cn[nH]c12 (racemic)" value_measured="0.01 to 100 nM"
compound="CC(OCC1(c2ccc(F)cc2)CCN(C)CC1)c1cc(C(F)(F)F)cc2cc[nH]c12 (racemic)" value_measured="0.01 to 100 nM"
compound=C[C@@H](OCC1(c2ccc(F)cc2)CCN(C)CC1)c1cc(Cl)cc2cnn(CC#N)c12 value_measured="0.01 to 100 nM"
compound="CC(OCC1(c2ccc(F)cc2)CCN(C)CC1)c1cc(C(F)(F)F)cc2cn(C)nc12 (single isomer, unassigned) [Example 33]" value_measured="0.01 to 100 nM"
compound="CN1CCC(COC(C(=O)O)c2cc(Cl)cc3cn[nH]c23)(c2ccc(F)cc2)CC1 (centres unmarked) [Example 90, trifluoroacetic acid salt]" value_measured="> 300 nM"
compound=CN1CCC(COCc2cc(C(F)(F)F)cc3cnn(C)c23)(c2ccccc2)CC1 value_measured="0.01 to 100 nM"
compound="CC(OCC1(c2ccc(F)cc2)CCN(C)CC1)c1cc(C2CC2)cc2c(Cl)n[nH]c12 (single isomer, unassigned)" value_measured="0.01 to 100 nM"
compound="CN1CCC(COC(C(=O)N(C)C)c2cc(Cl)cc3cn[nH]c23)(c2ccc(F)cc2)CC1 (centres unmarked) [Example 91, trifluoroacetic acid salt]" value_measured="> 300 nM"
compound="Cc1cc(C(C)OCC2(c3ccc(F)cc3)CCN(C)CC2)c2[nH]ncc2c1 (racemic)" value_measured="0.01 to 100 nM"
compound="CN1CCC(COC(CO)c2cc(Cl)cc3cn[nH]c23)(c2ccc(F)cc2)CC1 (centres unmarked) [Example 92, trifluoroacetic acid salt]" value_measured="0.01 to 100 nM"
compound=CN1CCC(COCc2cc(C(F)(F)F)cc3cn[nH]c23)(c2ccccc2)CC1 value_measured="0.01 to 100 nM"
compound="Cc1cc(C(C)OCC2(c3ccc(F)cc3)CCN(C)CC2)c2nn(CC3CC3)cc2c1 (racemic)" value_measured="0.01 to 100 nM"

---

Test system NK-1 (Homo sapiens), pIC50 listed for each of the compounds.
pIC50: −log10 of the molar value.
MEASUREMENT_NAME: pIC50

compound=C[C@@H](OCC1(c2ccc(F)cc2)CCN(C)CC1)c1cc(Br)cc2c(Br)n[nH]c12 measurement_name=pIC50 value_measured="7.00 to 11.00"
compound="CCC(OCC1(c2ccc(F)cc2)CCN(C)CC1)c1cc(Cl)cc2cn[nH]c12 (stereo not shown)" measurement_name=pIC50 value_measured="7.00 to 11.00"
compound="CC(OCC1(c2ccc(F)cc2)CCN(C)CC1)c1cc(C(F)(F)F)cc2ccn(C)c12 (single isomer, unassigned) [Example 75]" measurement_name=pIC50 value_measured="7.00 to 11.00"
compound="CN1CCC(COC(c2cc(Cl)cc3cn[nH]c23)C(F)F)(c2ccc(F)cc2)CC1 (stereo not shown)" measurement_name=pIC50 value_measured="7.00 to 11.00"
compound=CN1CCC(COCc2nc3cc(Br)ccc3n2CC2CC2)(c2ccccc2)CC1 measurement_name=pIC50 value_measured="< 6.52"
compound="CC(OCC1(c2ccc(F)cc2)CCN(C)CC1)c1cc(C(F)(F)F)cc2cn[nH]c12 (single isomer, unassigned) [Example 23]" measurement_name=pIC50 value_measured="6.52 to 7.00"
compound=CN1CCC(COCc2cc(C(F)(F)F)cc3cc[nH]c23)(c2ccc(F)cc2)CC1 measurement_name=pIC50 value_measured="7.00 to 11.00"

---

pIC50: −log10 of the molar value.
Heads up, these molecules all have pIC50 values measured for NK-1 (Homo sapiens).
MEASUREMENT_NAME: pIC50

molecule="Cc1cc(C(C)OCC2(c3ccc(F)cc3)CCN(C)CC2)c2c(cnn2CC2CC2)c1 (racemic)" value_measured="7.00 to 11.00"
molecule="CC(OCC1(c2ccc(F)cc2)CCN(C)CC1)c1cc(C(F)(F)F)cc2c1ncn2CC1CC1 (single isomer, unassigned) [Example 133]" value_measured="< 6.52"
molecule="CC(OCC1(c2ccc(F)cc2)CCN(C)CC1)c1cc(C(F)(F)F)cc2c1NC(=O)C2 (racemic)" value_measured="7.00 to 11.00"
molecule=CN1CCC(COCc2nc3ccc(C4CC4)cc3n2CC2CC2)(c2ccccc2)CC1 value_measured="< 6.52"
molecule=Cn1ncc2cc(C(F)(F)F)cc(COCC3(c4ccc(F)cc4)CCNCC3)c21 value_measured="7.00 to 11.00"
molecule=CN1CCC(COCc2cc(-c3ccc(C#N)cc3)cc3cnn(C4CC4)c23)(c2ccccc2)CC1 value_measured="6.52 to 7.00"

---

# MEASURED_ON: UniProtKB P25103
pIC50: −log10 of the molar value. Where a name gives a salt, the structure may show the parent alone.
Quick list: pIC50 per entry.
MEASUREMENT_NAME: pIC50

compound="CC(OCC1(c2ccc(F)cc2)CCN(C)CC1)c1cc(N(C)C)cc2cn[nH]c12 (stereo not drawn) [Example 51]" value_measured="7.00 to 11.00"
compound="Cc1cn(C)c2c(C(C)OCC3(c4ccc(F)cc4)CCN(C)CC3)cc(C(F)(F)F)cc12 (stereo not drawn) [Example 125]" value_measured="7.00 to 11.00"
compound="CC(OCC1(c2ccc(F)cc2)CCN(C)CC1)c1cc(N2CCOCC2)cc2cn[nH]c12 (racemic) [Example 50]" value_measured="6.52 to 7.00"
compound="CC(OCC1(c2ccc(F)cc2)CCN(C)CC1)c1cc(Cl)cc2[nH]c(=O)n(C)c12 (stereo not drawn) [Example 97, trifluoroacetic acid salt]" value_measured="6.52 to 7.00"
compound="CN1CCC(COCc2cc(C(F)(F)F)cc3nn(C)nc23)(c2ccc(F)cc2)CC1 [Example 79]" value_measured="7.00 to 11.00"
compound="CC(OCC1(c2ccc(F)cc2)CCN(C)CC1)c1cc(Cl)cc2c(C#N)c[nH]c12 (racemic) [Example 124]" value_measured="7.00 to 11.00"
compound="CN1CCC(COC(CF)c2cc(Cl)cc3cn[nH]c23)(c2ccc(F)cc2)CC1 (stereo not drawn) [Example 94]" value_measured="7.00 to 11.00"
compound="Cc1cc(C(C)OCC2(c3ccc(F)cc3)CCN(C)CC2)c2nn(CC(F)F)cc2c1 (racemic) [Example 61]" value_measured="7.00 to 11.00"
compound="CC(OCC1(c2ccc(F)cc2)CCN(C)CC1)c1cc(Cl)cc2c1[nH]c(=O)n2C (stereo not drawn) [Example 98, trifluoroacetic acid salt]" value_measured="7.00 to 11.00"
compound="Cc1c[nH]c2c(C(C)OCC3(c4ccc(F)cc4)CCN(C)CC3)cc(C(F)(F)F)cc12 (racemic) [Example 126]" value_measured="7.00 to 11.00"
compound="CN1CCC(COCc2cc(C(F)(F)F)cc3nnn(C)c23)(c2ccc(F)cc2)CC1 [Example 78]" value_measured="6.52 to 7.00"
compound="CN1CCC(COCc2cc(C(F)(F)F)cc3cn[nH]c23)(c2ccc(F)cc2)CC1 [Example 16]" value_measured="7.00 to 11.00"
compound="CC(OCC1(c2ccccc2)CCN(C)CC1)c1cc(C(F)(F)F)cc2cc[nH]c12 (racemic) [Example 70]" value_measured="7.00 to 11.00"
compound="CC(OCC1(c2ccc(F)cc2)CCN(C)CC1)c1cc(C#N)cc2cn[nH]c12 (racemic) [Example 48]" value_measured="7.00 to 11.00"
compound="CN1CCC(CO[C@H](CF)c2cc(Cl)cc3c(Cl)n[nH]c23)(c2ccc(F)cc2)CC1 [Example 109]" value_measured="7.00 to 11.00"

These data points were gathered from patent US8026257B2.
